# Test Details: Pharmacokinetic study in rats
# Assay type: in vivo, rat
# Setup Conditions: rat, plasma, po; Rats, 10 mg/kg, p.o.; read-out: Bioavailability (% F)
# Source text: The results of the PK profile of AF292 in rats and Beagle dogs (overnight fasting; drug administered in water solution; gavage) are listed in Table 1.
Measured Quantity: bioavailability (%)

>  <Molecule>
CC[C@@H]1SC2(CCNCC2)NC1=O [AF292]

>  <Measured Quantity>
bioavailability

>  <Quantity Unit>
%

>  <Measured Value>
49

$$$$

###

# Test Details: Pharmacokinetic study in rats
# Type: in vivo, rat
# Setup Conditions: rat, plasma; Rats; calculated for 2 mg/kg, po; read-out: Bioavailability (% F)

>  <Compound>
CC[C@@H]1SC2(CCN(C)CC2)NC1=O [AF267B]

>  <Quantity Unit>
%

>  <bioavailability>
30

$$$$

Reference for the values: patent US7439251B2
